From: a melting point compilation (Tetko et al.; mined from patent text by program, amines drawn as free bases though some values may be those of a salt)

Measurement Kind: melting point

                                test_smiles  measurement_kind  measured_value
0             CC(C)OC(=O)c1cn(-c2cccnc2)cn1     melting point   130 to 131 °C
1  CNC(=O)N(OC(=O)Oc1ccccc1)c1ccc(Cl)c(Cl)c1     melting point           93 °C
2  CCCN(CCC)Cc1noc(-c2ncn3c2[C@@H]2CCCN2C(=O)c2c(Cl)cccc2-3)n1     melting point   155 to 158 °C
3           CCNC(=O)c1cccc2[nH]n(C)c(=O)c12     melting point   192 to 194 °C
4                        CNc1nc(Cl)cc(Cl)n1     melting point   157 to 158 °C
5  COc1cc2c(cc1OC)C(=O)C(=Cc1cc(Cl)cc(Cl)c1)CC2     melting point   200 to 201 °C
